# maps each entry to its half-life
- test description: Half life in Sprague-Dawley rat at 1 mg/kg, iv
- Format: ADME, organism-based
- Set-up: dose 1 mg/kg, route intravenous
- test context: in vivo
Just the number please, in min, no unit attached.

Ask | Would you mind telling me what half-life value was observed for "COc1ccc(Cc2cc([C@@H]3OC4(CC4)[C@@H](O)[C@H](O)[C@H]3O)ccc2C)cc1" ?
Reply | 36.6

Others:
Ask | // returns reported half-life for input "CCc1ccc(Cc2cc([C@@H]3OC4(CC4)[C@@H](O)[C@H](O)[C@H]3O)ccc2C)cc1"
Reply | 35.4
